# tgt: T1, murine Jagged 2-Fc (R&D Systems) (murine, UniProt Q9QYE5 24-1082, limits assumed)
# T1 construct: Bought reagent, cited as ibid. although no catalogue number is printed anywhere; also called m Jagged 2; not shown: Fc part
# methodSummary: BLI (Octet), Jagged-Fc on anti-human Fc tips, Fab in solution

binder: 4B2 Fab (Fab, V domains shown, C-terminally His-tagged Fab from the periplasm of E. coli) VH: EVQLLESGGGLVQPGGSLRLSCAASGFTFSSYAMSWVRQAPGKGLEWVSSIEQMGWQTYYADSVKGRFTISRDNSKNTLYLQMNSLRAEDTAVYYCAKDIGGRSAFDYWGQGTLVTVSS VL: DIQMTQSPSSLSASVGDRVTITCRASQSISSYLNWYQQKPGKAPKLLIYAASSLQSGVPSRFSGSGSGTDFTLTISSLQPEDFATYYCQQTLDAPPQFGQGTKVEIKR
unit: s⁻¹
koff: 0.0011
